- Tested System: PD-L1 (Homo sapiens, UniProt Q9NZQ7)
- Construct: determine if they can specifically dimerize the extracellular domains of PD-L1
- Sequence (Q9NZQ7 19-238 limits assumed): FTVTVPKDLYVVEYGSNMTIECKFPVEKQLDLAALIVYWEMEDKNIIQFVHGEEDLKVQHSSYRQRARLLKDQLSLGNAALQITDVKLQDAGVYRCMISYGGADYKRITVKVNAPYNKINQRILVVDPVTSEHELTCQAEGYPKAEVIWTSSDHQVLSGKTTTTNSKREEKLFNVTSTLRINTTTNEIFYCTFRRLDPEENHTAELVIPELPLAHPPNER
- Sequence (Q9NZQ7 19-238 limits assumed): as above
- Assay Notes: PD-L1/PD-L1 dimerization biochemical protein-protein interaction assay (ALPHA)
- Assay type: binding
- Stated Conditions: compound-induced PD-L1 dimerization, head prints '1 nM' (0.5 nM His-tagged PD-L1 and 0.5 nM FLAG-tagged PD-L1), read-out: AC50 PDL1 Dimer Alpha 1 nM

Smiles Text	Measure Unit	Value Comparator	AC50
Cc1c(COc2cc(OCc3cncc(C#N)c3)c(CN3CC[C@@H](O)C3)cc2Cl)cccc1-c1cccc(-c2ccc(CN3CC(CC(=O)O)C3)cc2)c1C	nM	=	347
Cc1c(COc2cc(OCc3cncc(C#N)c3)c(CNC[C@@H](O)CC(=O)O)cc2Cl)cccc1-c1cccc(-c2ccc(CN[C@H]3CCCNC3=O)cc2)c1C	nM	=	453
Cc1c(COc2nc(OCc3cncc(C#N)c3)c(CN[C@@](C)(CO)C(=O)O)cc2Cl)cccc1-c1cccc(-c2ccc3c(c2)CC[C@@]3(CO)N(C)C)c1C	nM	=	150
Cc1c(COc2nc(OCc3cc(C#N)cc(C#N)c3)c(CN[C@@H](CO)C(=O)O)cc2Cl)cccc1-c1cccc(COc2nc(OCc3cc(C#N)cc(C#N)c3)c(CN[C@@H](CO)C(=O)O)cc2Cl)c1C	nM	≥	10000
Cc1c(COc2cc(OCc3cncc(C(=O)O)c3)c(CN[C@@](C)(CO)C(=O)O)cc2Cl)cccc1-c1cccc(-c2ccc(OCCN3CC[C@@H](O)C3)cc2)c1C	nM	=	74.3

---

- Tested System: PD-1/PD-L1 (Homo sapiens)
- Assay Notes: PD-1/PD-L1 biochemical protein-protein interaction assay (ALPHA)
- Stated Conditions: 0.3 nM His tagged PD-L1, 2.5 nM biotinylated Fc-PD-1, 60 minutes at 25° C., read-out: IC50 PD-L1-PD-1 Alpha IC50-mono PD-L1-fcP-D1
// thresholds for IC50 classes: lower bin (below 0.2 nM), middle bin (0.2 nM to below 0.5 nM), upper bin (0.5 nM or more)

Compound	Answer Label
COc1nc(-c2cccc(-c3cccc4c3CC[C@@H]4Oc3nc(OCc4cncc(C#N)c4)c(CNC[C@@H](O)CC(=O)O)cc3Cl)c2Cl)ccc1CN1CC2(CCC(=O)N2)C1	lower bin
CN1CCCC1c1ccc(-c2cccc(-c3cccc4c3CC[C@@H]4Oc3nc(OCc4cncc(C#N)c4)c(CNCCO)cc3Cl)c2Cl)cc1 (stereo partly shown)	upper bin
COc1nc(OCc2cccc(-c3cccc(COc4ccc(CNC[C@@H](O)CC(=O)O)c(OC)n4)c3C)c2C)ccc1CNC[C@@H](O)CC(=O)O	upper bin
CS(=O)(=O)c1cncc(COc2nc(O[C@H]3CCc4c(-c5cccc(-c6ccc(CN)cc6)c5Cl)cccc43)c(Cl)cc2CNC[C@@H](O)CC(=O)O)c1	lower bin
COc1nc(-c2cccc(-c3cccc(COc4nc(OCc5cc(C#N)cc(C#N)c5)c(CNC[C@@H](O)CC(=O)O)cc4Cl)c3Cl)c2Cl)ccc1CNC[C@@H]1CCC(=O)N1	lower bin
Cc1c(COc2cc(OCc3cncc(C#N)c3)c(CN[C@@](C)(CO)C(=O)O)cc2Cl)cccc1-c1cccc(-c2ccc(CNC[C@@H]3CCC(=O)N3)cc2)c1C	lower bin
Cc1c(COc2cc(OCc3cncc(C#N)c3)c(CN3CC[C@@H](C(=O)O)C3)cc2Cl)cccc1-c1cccc(-c2ccc(OCCNCCO)cc2)c1C	lower bin
Cc1c(COc2cc(OCC3CCOC3)c(CNC[C@@H](O)CC(=O)O)cc2Cl)cccc1-c1cccc(COc2cc(OCC3CCOC3)c(CNC[C@@H](O)CC(=O)O)cc2Cl)c1C (stereo partly shown)	middle bin
Cc1c(COc2cc(OCc3cncc(C#N)c3)c(CNC[C@@H](O)CC(=O)O)cc2Cl)cccc1-c1cccc(-c2cnc3c(CNC[C@@H](O)CC(=O)O)cccc3c2)c1C	lower bin
COc1cc(-c2cccc(-c3cccc(COc4nc(OC)c(CN5CC6(C5)CN(C(C)=O)C6)cc4Br)c3Cl)c2Cl)ccc1CN1CC2(C1)CN(C(C)=O)C2	upper bin
COc1nc(-c2cccc(-c3cccc4c3CC[C@@H]4Oc3nc(OC)c(CN4CC5(CCC(=O)N5)C4)cc3Cl)c2Cl)ccc1CN1CC2(CCC(=O)N2)C1	middle bin
Cc1c(COc2cc(OCc3cncc(C#N)c3)c(CNCCO)cc2Cl)cccc1-c1cccc(COc2cc(OCc3cncc(C#N)c3)c(CNCCO)cc2Cl)c1	upper bin
COc1nc(O[C@H]2CCc3c(-c4cccc(-c5ccc(CNC[C@@H]6CCC(=O)N6)c(OCC#N)n5)c4Cl)cccc32)c(Cl)cc1CN[C@@H]1CCC[C@@H]1O	middle bin
COc1nc(O[C@H]2CCc3c(-c4cccc(-c5ccc(CNC[C@@H]6CCC(=O)N6)cc5)c4Cl)cccc32)c(Cl)cc1CN1CC[C@@H](C(=O)O)C1	lower bin
N#Cc1cncc(COc2cc(OCc3cccc(-c4cccc(COc5cc(OCc6cncc(C#N)c6)c(CNCCO)cc5Cl)c4)c3)c(Cl)cc2CNCCO)c1	upper bin
Cc1c(COc2cc(OCc3cncc(C#N)c3)c(CNC[C@@H](O)CC(=O)O)cc2Cl)cccc1-c1cccc(-c2ccc3c(c2)CC(N2CC(C)(O)C2)C3)c1C (stereo partly shown)	upper bin
COc1nc(-c2cccc(-c3cccc4c3CC[C@@H]4Oc3nc(OC)c(CNC[C@@H]4CCC(=O)N4)cc3Cl)c2Cl)ccc1CNC[C@@H]1CCC(=O)N1	middle bin
Cc1c(COc2cc(OCc3cncc(C#N)c3)c(CNC[C@@H](O)CC(=O)O)cc2Cl)cccc1-c1cccc(-c2ccc3c(CNC[C@@H](O)CC(=O)O)cccc3c2)c1C	middle bin
Cc1c(COc2ccc(CNCCO)cc2)cccc1-c1cccc(COc2cc(OCc3cncc(C#N)c3)c(CNCCO)cc2Cl)c1C	upper bin

---

- Tested System: PD-1/PD-L1 (Homo sapiens)
- Assay Notes: PD-1/PD-L1 biochemical protein-protein interaction assay (ALPHA)
- Stated Conditions: 0.3 nM His tagged PD-L1, 2.5 nM biotinylated Fc-PD-1, 60 minutes at 25° C., read-out: IC50 PD-L1-PD-1 Alpha IC50-mono PD-L1-fcP-D1
IC50 values for the compounds below.

Smiles Text	IC50 / nM
COc1nc(-c2cccc(-c3cccc(NC(=O)c4ccc(C5=NCCN5)cn4)c3C)c2Cl)ccc1C1=NCCN1	0.077
COc1nc(-c2cccc(-c3cccc4c3CC[C@@H]4Oc3nc(OCc4cncc(C#N)c4)c(CN[C@@](C)(CO)C(=O)O)cc3Br)c2Cl)ccc1CNC[C@@H]1CCC(=O)N1	0.064
Cc1c(COc2nc(OCc3cncc(S(C)(=O)=O)c3)c(CN[C@@](C)(CO)C(=O)O)cc2Br)cccc1-c1cccc(COc2nc(OCc3cncc(S(C)(=O)=O)c3)c(CN[C@@](C)(CO)C(=O)O)cc2Br)c1C	0.2
COc1nc(O[C@H]2CCc3c(-c4cccc(-c5ccc(CNC[C@@H]6CCC(=O)N6)cc5)c4Cl)cccc32)c(Cl)cc1CNC[C@@H]1CCC(=O)N1	0.74
Cc1c(COc2cc(OCc3cncc(C#N)c3)c(CN[C@@](C)(CO)C(=O)O)cc2Cl)cccc1-c1cccc(COc2cc(OCc3cncc(C#N)c3)c(CN[C@@](C)(CO)C(=O)O)cc2Cl)c1Br	0.064

---

pIC50 values for the molecules below.
- Tested System: PD-1/PD-L1 (Homo sapiens, UniProt Q9NZQ7)
- Assay Notes: PD-1/PD-L1 biochemical protein-protein interaction assay (ALPHA)
- Stated Conditions: 0.3 nM His tagged PD-L1, 2.5 nM biotinylated Fc-PD-1, 60 minutes at 25° C., read-out: IC50 PD-L1-PD-1 Alpha IC50-mono PD-L1-fcP-D1
pIC50: −log10 of the molar value.

Molecule	Tested System	pIC50
COc1nc(O[C@H]2CCc3c(-c4cccc(-c5ccc6c(c5)C[C@@H](N)C6)c4Cl)cccc32)ccc1CNC[C@@H]1CCC(=O)N1	PD-1/PD-L1 (Homo sapiens, UniProt Q9NZQ7)	8.76
Cc1c(COc2cc(OCc3cncc(C#N)c3)c(CNC[C@@H](O)CC(=O)O)cc2Cl)cccc1-c1cccc(-c2ccc3c(c2)CC(NCC(=O)O)C3)c1C (stereo partly drawn)	PD-1/PD-L1 (Homo sapiens, UniProt Q9NZQ7)	10.19
Cc1c(-c2ccc(CN3CC[C@@H](O)C3)cc2)cccc1-c1cccc(-c2ccc(CNC[C@@H](O)CC(=O)O)c(OC(F)(F)F)c2)c1C	PD-1/PD-L1 (Homo sapiens, UniProt Q9NZQ7)	8.86

---

pIC50 values for the compounds below.
- Tested System: PD-1/PD-L1 (Homo sapiens, UniProt Q9NZQ7)
- Assay Notes: PD-1/PD-L1 biochemical protein-protein interaction assay (ALPHA)
- Stated Conditions: 0.3 nM His tagged PD-L1, 2.5 nM biotinylated Fc-PD-1, 60 minutes at 25° C., read-out: IC50 PD-L1-PD-1 Alpha IC50-mono PD-L1-fcP-D1
pIC50: −log10 of the molar value.

Compound	pIC50
Cc1c(COc2cc(OCc3cncc(C#N)c3)c(CN[C@@](C)(CO)C(=O)O)cc2Cl)cccc1-c1cccc(Nc2nccc3cc(CNCCO)cnc23)c1C	9.70
COc1nc(OCc2cccc(-c3cccc(COc4nc(OC)c(CNC[C@@H](O)CC(=O)O)cc4Cl)c3C)c2C)c(Cl)cc1CNC[C@@H](O)CC(=O)O	9.10
COc1nc(-c2cccc(-c3cccc4c3CC[C@@H]4Oc3nc(OC)c(CN4CCCC(O)(C(=O)O)C4)cc3Cl)c2Cl)ccc1CNC[C@@H]1CCC(=O)N1 (stereo partly drawn)	10.19
